Below, each entry is listed with its recorded binding signal.
Target: GST-VND3 NAC domain (Arabidopsis thaliana, UniProt Q9FH59 12-162)
Sequence: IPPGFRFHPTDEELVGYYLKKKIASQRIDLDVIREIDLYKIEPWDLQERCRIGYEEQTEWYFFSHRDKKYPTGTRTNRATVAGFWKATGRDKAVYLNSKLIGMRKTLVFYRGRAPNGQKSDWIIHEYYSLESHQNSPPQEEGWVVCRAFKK
Test: universal protein binding microarray (PBM); high values mean tight binding
Conditions: protein: recombinant; tags: GST; chain copies: 2; dsDNA, one strand shown

Below, each entry is followed by its recorded binding signal result.
| POLYMER SEQUENCE | VALUE TYPE | ASSAY VALUE |
| --- | --- | --- |
| AGAGGTAA | binding signal | 0.0836 E-score |
| ACGTCACT | binding signal | 0.355 E-score |
| AATGCGTG | binding signal | 0.286 E-score |
| GAAGGTAA | binding signal | 0.148 E-score |
| GCACGTCA | binding signal | 0.368 E-score |
| ACGTAAAC | binding signal | 0.402 E-score |
| CCACGGAA | binding signal | 0.343 E-score |
| ATTGGTCA | binding signal | 0.0748 E-score |

Ask: Tell me measured binding signal for GCGTACGC please.
Result: 0.0861 E-score

Ask: Quote binding signal reported for GGACGCAA please.
Result: 0.0908 E-score

Ask: Annotate the sequence ACGTAAGT with its measured binding signal.
Result: 0.414 E-score

Ask: Look up binding signal of AGCACGCA and report it.
Result: 0.301 E-score

Ask: Return value of binding signal for input ACGTAATA , no commentary.
Result: 0.377 E-score

====

Target: GST-ANAC092(1-176) (Arabidopsis thaliana, UniProt Q9FKA0 1-176)
Sequence: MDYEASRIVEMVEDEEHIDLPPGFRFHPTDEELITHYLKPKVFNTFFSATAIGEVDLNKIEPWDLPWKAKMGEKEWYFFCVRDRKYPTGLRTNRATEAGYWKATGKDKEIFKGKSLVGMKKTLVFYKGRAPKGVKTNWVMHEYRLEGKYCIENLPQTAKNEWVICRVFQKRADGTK
Assay: universal protein binding microarray (PBM); high values mean tight binding
Settings: protein: recombinant; tags: GST; chain copies: 2; dsDNA, one strand shown
Binary call on binding signal: Satisfied from 0.4 E-score upward, Not satisfied beneath that.

| POLYMER SEQUENCE | LABEL VALUE |
| --- | --- |
| CACGTTAC | Satisfied |

Ask: Hi, just wondering whether CTACGTAA shows binding signal of 0.4 E-score or higher.
Result: Not satisfied

Ask: Does the reported binding signal for CTAAGTAA fall at or above the 0.4 E-score mark?
Result: Not satisfied

Ask: Form field: binding signal at least 0.4 E-score? Entry: CTTGCGTC
Result: Not satisfied

Ask: Check the entry GTGGCGTA : does binding signal equal or exceed 0.4 E-score?
Result: Satisfied

Ask: Could you verify whether the entry ACACGGCA shows binding signal of no less than 0.4 E-score?
Result: Satisfied

Ask: Item GGGGAAAC with binding signal of 0.4 E-score or above?
Result: Not satisfied

Ask: Test whether the sequence ACGTCATC records binding signal of 0.4 E-score or higher.
Result: Satisfied

Ask: # bool: binding signal of GAAGGTAA >= 0.4 E-score
Result: Not satisfied

Ask: Does the sequence GCACGCGA have recorded binding signal that is 0.4 E-score or more?
Result: Not satisfied

Ask: Textbook exercise: given the entry TGAGGAAA , state whether its binding signal is greater than or equal to 0.4 E-score.
Result: Not satisfied

Ask: Is it the case that AAAAGTCA has binding signal reaching or exceeding 0.4 E-score?
Result: Not satisfied

Ask: Decide: binding signal of AATGCGTA >= 0.4 E-score?
Result: Not satisfied

Ask: Has GCACGTTA a recorded binding signal greater than or equal to 0.4 E-score?
Result: Satisfied

Ask: State whether the measured binding signal reaches 0.4 E-score, counting equality as reaching it, for ATTACTTA
Result: Not satisfied

Ask: Quick check, binding signal >= 0.4 E-score? ACGTTACA
Result: Not satisfied

Ask: Is reported binding signal greater than or equal to 0.4 E-score here: ACGTAATC
Result: Satisfied

Ask: hey, is binding signal for this one >= 0.4 E-score? AAGTAAGT
Result: Not satisfied

Ask: Could you tell me if the measured binding signal of CTTTCCTC reaches 0.4 E-score or more?
Result: Not satisfied

Ask: Could you tell me if the measured binding signal of CGTCAAAG reaches 0.4 E-score or more?
Result: Not satisfied

====

Target: GST-ANAC019 NAC domain (Arabidopsis thaliana, UniProt Q9C932 14-162)
Sequence: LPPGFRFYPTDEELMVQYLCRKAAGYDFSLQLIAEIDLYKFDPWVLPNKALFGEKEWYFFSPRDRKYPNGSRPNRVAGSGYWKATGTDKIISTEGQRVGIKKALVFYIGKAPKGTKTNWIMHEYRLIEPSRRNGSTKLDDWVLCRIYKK
Assay: universal protein binding microarray (PBM); high values mean tight binding
Conditions: protein: recombinant; tags: GST; chain copies: 2; dsDNA, one strand shown
For each record, check the reported binding signal: if it is below 0.4 E-score write yes (1), else write no (0).

Worked examples follow.
| POLYMER SEQUENCE | LABEL VALUE |
| --- | --- |
| GTCACGCA | yes (1) |
| ATACGAAA | yes (1) |
| CACGGCAG | no (0) |
| ACGTAACG | no (0) |
| TCACGGCA | no (0) |
| GTTACGTA | no (0) |

Ask: Take the sequence ATTGAGTA and say whether its binding signal is less than 0.4 E-score.
Result: yes (1)

Ask: I'd appreciate it if you could check whether GTAGGTCA has binding signal smaller than 0.4 E-score.
Result: yes (1)

Ask: Does this sequence meet the criterion binding signal < 0.4 E-score? ACACGCCA
Result: yes (1)

Ask: Check if binding signal falls below 0.4 E-score for CACGCAAC .
Result: no (0)

====

Biological target: GST-ANAC092(1-176) (Arabidopsis thaliana, UniProt Q9FKA0 1-176)
Sequence: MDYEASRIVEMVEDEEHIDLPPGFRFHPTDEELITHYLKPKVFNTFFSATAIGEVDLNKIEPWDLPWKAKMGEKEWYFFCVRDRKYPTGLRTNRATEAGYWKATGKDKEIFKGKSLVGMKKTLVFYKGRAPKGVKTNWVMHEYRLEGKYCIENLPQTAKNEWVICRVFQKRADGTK
Assay: universal protein binding microarray (PBM); high values mean tight binding
Conditions: protein: recombinant; tags: GST; chain copies: 2; dsDNA, one strand shown
// not satisfied strictly below 0.4 E-score in binding signal; satisfied otherwise

| POLYMER SEQUENCE | LABEL VALUE |
| --- | --- |
| AGGGTAAC | not satisfied |
| GGATTGAC | not satisfied |

Ask: Is binding signal for CTTGCTTC at or above 0.4 E-score?
Result: not satisfied

Ask: Hi team, for ATAGCGTG , is the recorded binding signal at or above 0.4 E-score?
Result: satisfied

====

Measured binding signal, listed per entry for reference.
Molecular target: GST-NST2(1-184) (Arabidopsis thaliana, UniProt Q9M274 1-184)
Sequence: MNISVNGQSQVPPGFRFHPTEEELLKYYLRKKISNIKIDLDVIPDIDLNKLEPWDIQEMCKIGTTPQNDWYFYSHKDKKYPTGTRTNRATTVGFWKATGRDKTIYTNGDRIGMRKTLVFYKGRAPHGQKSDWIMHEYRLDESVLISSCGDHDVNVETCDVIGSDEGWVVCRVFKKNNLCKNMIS
Test: universal protein binding microarray (PBM); transcription factors of Arabidopsis thaliana; high values mean tight binding
Details: protein: recombinant; tags: GST; chain copies: 2; dsDNA, one strand shown
Numbers only here, please. The scale is E-score.

| POLYMER SEQUENCE | ASSAY VALUE |
| --- | --- |
| CTTAAGGA | 0.0872 |
| GACGTCAA | 0.0988 |
| GTCAAAGA | 0.053 |
| ACGCCATC | 0.237 |
| GTTAAGGA | 0.16 |

Ask: Indicate its recorded binding signal; the sequence in question is CACACGTC
Result: 0.079

Ask: Give me measured binding signal, please, for this sequence: ACGTCTCT
Result: 0.175

Ask: Tell us which binding signal value is on record for ATTCCGTA
Result: 0.194

Ask: Give the measured binding signal for CACGTAAG
Result: 0.201

Ask: Please look at this sequence and report its binding signal: GCGTACGC
Result: 0.251

Ask: State its binding signal for this sequence: GTAACGTA
Result: 0.321

Ask: Assign binding signal to the following record: CACGCTTC
Result: 0.188

Ask: Fill in reported binding signal for this entry: GCACGCAA
Result: 0.405

Ask: Name the recorded binding signal of the sequence listed here: CACACGCA
Result: 0.229

From: paper PMC4081100
